Tested on: SR leukemia
Experiment: NCI-60 one-dose screen, 48 h (100 = growth as untreated, 0 = no growth, -100 = all killed)
Details: 10 µM unless noted
Compounds without any hit were thinned out: in the full panel of roughly 83,000, 20% have a hit.
MEASURE NAME: growth (%)
Answers are plain numbers, in %.

# count of solved cases: 3
COMPOUND: COc1cc(C(=O)c2cnc(-c3cccc4[nH]ccc34)[nH]2)cc(OC)c1OC
UOM: %
growth: 13.9

COMPOUND: C/C=C(\C)C(=O)N[C@H]1[C@@H](OC(C)=O)C[C@]2(C)C3CC[C@@]4(C)C(CC[C@@H]4C(C)N(C)C)C3CCC2[C@H]1O (some centres undefined)
UOM: %
growth: 51

COMPOUND: CC(=O)CC[C@H]1C(=O)N[C@@H](C(C)C)C(=O)N[C@@H](Cc2cc(O)cc(F)c2)C(=O)N2CCC[C@H](N2)C(=O)O[C@H](/C(C)=C/C=C/C(=O)OC(C)(C)C)C/C=C/C=C/[C@H](O)[C@H](C)[C@H]1O
UOM: %
growth: 16.7

Next, consider the following compound.
Could you share which growth value was measured for Cc1ccc(C(=O)N/N=C/c2cccc([N+](=O)[O-])c2)cn1 ?
108
